These measurements were taken from paper PMC9849758.

Here, each record is paired with measured IC50 data.
# SYSTEM NAME: β-tryptase (recombinant tryptase β-2) (Homo sapiens, UniProt P20231)
# Construct: purchased EnzoLife Sciences
# Sequence (P20231 31-275): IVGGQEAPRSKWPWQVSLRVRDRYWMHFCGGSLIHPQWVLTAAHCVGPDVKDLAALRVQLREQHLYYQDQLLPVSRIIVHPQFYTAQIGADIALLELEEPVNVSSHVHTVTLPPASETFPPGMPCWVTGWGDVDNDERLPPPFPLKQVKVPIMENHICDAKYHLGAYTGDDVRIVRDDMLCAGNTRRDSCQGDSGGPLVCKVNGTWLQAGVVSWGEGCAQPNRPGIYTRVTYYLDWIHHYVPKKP
# ASSAY EXPLANATION: IC50 determination, spectrophotometric protease assay
# Type: biochemical
Response body: numeric value in nM, unit text excluded.

COMPOUND	SYSTEM NAME	RESULT UNITS	IC50
C#CCCCOC(=O)NC(CCCNC(=N)N)P(=O)(Oc1ccccc1)Oc1ccccc1 (stereo not drawn) [32b]	β-tryptase (recombinant tryptase β-2) (Homo sapiens, UniProt P20231)	nM	3740
C#CCCCOC(=O)NC(c1ccc(NC(=N)N)cc1)P(=O)(Oc1ccc(Cl)cc1)Oc1ccc(Cl)cc1 (stereo not drawn) [39b]	β-tryptase (recombinant tryptase β-2) (Homo sapiens, UniProt P20231)	nM	70
C#CCCCOC(=O)NC(CCCNC(=N)N)P(=O)(Oc1ccc(Cl)cc1)Oc1ccc(Cl)cc1 (stereo not drawn) [33b]	β-tryptase (recombinant tryptase β-2) (Homo sapiens, UniProt P20231)	nM	170

Then this compound:
Task: Report IC50 for C#CCCCOC(=O)NC(CCCCN)P(=O)(Oc1ccc(NC(=O)OC)cc1)Oc1ccc(NC(=O)OC)cc1 (stereo not drawn) [30b] please.
Result: 680
